# ASSAY: Oral bioavailability in C57BL6 mouse at 5 mg/kg
# Format: ADME, organism-based
# PROTOCOL CONDITIONS: in vivo
OUTCOME MEASURE: bioavailability (%)

given_smiles=CC(C)(O)c1ccc(-c2cccc(N(CC34CCC(c5noc(C(C)(C)F)n5)(CC3)CC4)C(=O)[C@H]3C[C@](O)(C(F)(F)F)C3)c2)cc1 recorded_value=69

* * *

# MEASUREMENT TARGET: Bile acid receptor (Homo sapiens, UniProt Q96RI1)
# Sequence (Q96RI1 whole entry, the tested form may be a part): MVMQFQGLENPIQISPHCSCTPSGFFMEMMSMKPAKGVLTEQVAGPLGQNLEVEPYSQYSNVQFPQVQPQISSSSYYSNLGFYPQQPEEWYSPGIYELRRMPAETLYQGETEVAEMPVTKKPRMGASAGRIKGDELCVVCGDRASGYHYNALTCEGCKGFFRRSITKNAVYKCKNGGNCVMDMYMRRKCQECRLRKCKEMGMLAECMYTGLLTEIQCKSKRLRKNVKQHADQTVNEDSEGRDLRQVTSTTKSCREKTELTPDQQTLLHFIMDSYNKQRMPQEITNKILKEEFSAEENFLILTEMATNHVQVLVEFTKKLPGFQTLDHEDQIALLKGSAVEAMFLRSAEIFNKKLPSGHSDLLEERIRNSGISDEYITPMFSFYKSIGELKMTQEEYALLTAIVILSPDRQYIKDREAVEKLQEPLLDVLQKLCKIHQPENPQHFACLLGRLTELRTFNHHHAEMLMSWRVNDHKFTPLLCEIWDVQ
# ASSAY: Agonist activity at Gal4-fused human FXR in HEK293 cells incubated for 15 min by luciferase reporter assay
# Type: cell-based
pEC50: −log10 of the molar value.
OUTCOME MEASURE: pEC50

given_smiles=CCOC(=O)c1nc(-c2cccc(N(CC34CCC(c5nc(C6CC6)no5)(CC3)CC4)C(=O)C3CCCCC3)c2)cs1 measurement_target="Bile acid receptor (Homo sapiens, UniProt Q96RI1)" recorded_value=6.04
given_smiles=CCOc1ncc(-c2cccc(N(CC34CCC(c5noc(C(C)(C)C)n5)(CC3)CC4)C(=O)[C@H]3C[C@](O)(C(F)(F)F)C3)c2)cn1 measurement_target="Bile acid receptor (Homo sapiens, UniProt Q96RI1)" recorded_value=6.82
given_smiles=COC(=O)/C=C/c1cccc(N(CC23CCC(c4ccc(C5CC5)cc4)(CC2)CC3)C(=O)C2CCCCC2)c1 measurement_target="Bile acid receptor (Homo sapiens, UniProt Q96RI1)" recorded_value=6.95
given_smiles=COC(=O)/C=C/c1cccc(N(CC23CCC(c4ccc(OC)cc4)(CC2)CC3)C(=O)C2CCCCC2)c1 measurement_target="Bile acid receptor (Homo sapiens, UniProt Q96RI1)" recorded_value=6.85
given_smiles=COC(=O)/C=C/c1cccc(N(CC23CCC(c4ccc(N(C)C)cc4)(CC2)CC3)C(=O)C2CCCCC2)c1 measurement_target="Bile acid receptor (Homo sapiens, UniProt Q96RI1)" recorded_value=7.18
given_smiles=O=C(C1CCCCC1)N(CC12CCC(c3nc(C4CC4)no3)(CC1)CC2)c1cccc(-c2nc(C3CC3)no2)c1 measurement_target="Bile acid receptor (Homo sapiens, UniProt Q96RI1)" recorded_value=7.36
given_smiles=COc1cccc(-c2cccc(N(CC34CCC(c5nc(C6CC6)no5)(CC3)CC4)C(=O)C3CCCCC3)c2)c1 measurement_target="Bile acid receptor (Homo sapiens, UniProt Q96RI1)" recorded_value=7.04
given_smiles=CCOc1cc(-c2cccc(N(CC34CCC(c5nc(C6CC6)no5)(CC3)CC4)C(=O)C3CCCCC3)c2)no1 measurement_target="Bile acid receptor (Homo sapiens, UniProt Q96RI1)" recorded_value=7.23

* * *

Collected remaining at 10 min values appear next to each entry.
# ASSAY: Metabolic stability in human liver microsome assessed as parent compound remaining at […] measured after 10 mins
# Assay type: ADME
# PROTOCOL CONDITIONS: liver microsomes, read-out: Stability
OUTCOME MEASURE: remaining at 10 min (%)

given_smiles=CCOc1ncc(-c2cccc(N(CC34CCC(c5noc(C(C)(C)C)n5)(CC3)CC4)C(=O)[C@H]3C[C@](O)(C(F)(F)F)C3)c2)cn1 outcome_measure="remaining at 10 min" recorded_value=69
given_smiles=CC(C)(O)c1ccc(-c2cccc(N(CC34CCC(c5noc(C(C)(C)F)n5)(CC3)CC4)C(=O)[C@H]3C[C@](O)(C(F)(F)F)C3)c2)cc1 outcome_measure="remaining at 10 min" recorded_value=100
given_smiles=CCOc1ncc(-c2cccc(N(CC34CCC(c5noc(C(C)(C)C)n5)(CC3)CC4)C(=O)[C@H]3C[C@@](C)(O)C3)c2)cn1 outcome_measure="remaining at 10 min" recorded_value=64
given_smiles=CC(C)(C)c1noc(C23CCC(CN(C(=O)C45CC(F)(C4)C5)c4cccc(-c5nc(C6CC6)no5)c4)(CC2)CC3)n1 outcome_measure="remaining at 10 min" recorded_value=100
given_smiles=CCOc1ncc(-c2cccc(N(CC34CCC(c5noc(C(F)F)n5)(CC3)CC4)C(=O)C34CC(F)(C3)C4)c2)cn1 outcome_measure="remaining at 10 min" recorded_value=88
given_smiles=O=C(C1CCC(F)(F)CC1)N(CC12CCC(c3nc(C4CC4)no3)(CC1)CC2)c1cccc(-c2nc(C3CC3)no2)c1 outcome_measure="remaining at 10 min" recorded_value=100
given_smiles=O=C(C1CCOCC1)N(CC12CCC(c3nc(C4CC4)no3)(CC1)CC2)c1cccc(-c2nc(C3CC3)no2)c1 outcome_measure="remaining at 10 min" recorded_value=86
given_smiles=O=C(N(CC12CCC(c3nc(C4CC4)no3)(CC1)CC2)c1cccc(-c2nc(C3CC3)no2)c1)C12CC(F)(C1)C2 outcome_measure="remaining at 10 min" recorded_value=100
given_smiles=O=C(C1CCS(=O)(=O)CC1)N(CC12CCC(c3nc(C4CC4)no3)(CC1)CC2)c1cccc(-c2nc(C3CC3)no2)c1 outcome_measure="remaining at 10 min" recorded_value=100
given_smiles=CCOc1ccc(-c2cccc(N(CC34CCC(c5noc(C(C)(C)C)n5)(CC3)CC4)C(=O)C34CC(F)(C3)C4)c2)cn1 outcome_measure="remaining at 10 min" recorded_value=94
given_smiles=O=C(C1CC(F)(F)C1)N(CC12CCC(c3nc(C4CC4)no3)(CC1)CC2)c1cccc(-c2nc(C3CC3)no2)c1 outcome_measure="remaining at 10 min" recorded_value=98
given_smiles=CCOc1ncc(-c2cccc(N(CC34CCC(c5noc(C(C)(C)C)n5)(CC3)CC4)C(=O)C34CC(F)(C3)C4)c2)cn1 outcome_measure="remaining at 10 min" recorded_value=100
given_smiles=O=C(C1CCCCC1)N(CC12CCC(c3nc(C4CC4)no3)(CC1)CC2)c1cccc(-c2nc(C3CC3)no2)c1 outcome_measure="remaining at 10 min" recorded_value=38
given_smiles=CN1CCC(C(=O)N(CC23CCC(c4nc(C5CC5)no4)(CC2)CC3)c2cccc(-c3nc(C4CC4)no3)c2)CC1 outcome_measure="remaining at 10 min" recorded_value=98
given_smiles=CC(C)(C)c1nc(C23CCC(CN(C(=O)C45CC(F)(C4)C5)c4cccc(-c5nc(C6CC6)no5)c4)(CC2)CC3)no1 outcome_measure="remaining at 10 min" recorded_value=97
given_smiles=CC(C)(O)c1ccc(-c2cccc(N(CC34CCC(c5noc(C(C)(C)F)n5)(CC3)CC4)C(=O)[C@H]3C[C@@](C)(O)C3)c2)cc1 outcome_measure="remaining at 10 min" recorded_value=100
given_smiles=CC(C)(C)c1nc(C23CCC(CN(C(=O)C45CC(F)(C4)C5)c4cccc(-c5nnc(C6CC6)o5)c4)(CC2)CC3)no1 outcome_measure="remaining at 10 min" recorded_value=76
